- assay_target: MjAgo (Methanocaldococcus jannaschii)
- Sequence: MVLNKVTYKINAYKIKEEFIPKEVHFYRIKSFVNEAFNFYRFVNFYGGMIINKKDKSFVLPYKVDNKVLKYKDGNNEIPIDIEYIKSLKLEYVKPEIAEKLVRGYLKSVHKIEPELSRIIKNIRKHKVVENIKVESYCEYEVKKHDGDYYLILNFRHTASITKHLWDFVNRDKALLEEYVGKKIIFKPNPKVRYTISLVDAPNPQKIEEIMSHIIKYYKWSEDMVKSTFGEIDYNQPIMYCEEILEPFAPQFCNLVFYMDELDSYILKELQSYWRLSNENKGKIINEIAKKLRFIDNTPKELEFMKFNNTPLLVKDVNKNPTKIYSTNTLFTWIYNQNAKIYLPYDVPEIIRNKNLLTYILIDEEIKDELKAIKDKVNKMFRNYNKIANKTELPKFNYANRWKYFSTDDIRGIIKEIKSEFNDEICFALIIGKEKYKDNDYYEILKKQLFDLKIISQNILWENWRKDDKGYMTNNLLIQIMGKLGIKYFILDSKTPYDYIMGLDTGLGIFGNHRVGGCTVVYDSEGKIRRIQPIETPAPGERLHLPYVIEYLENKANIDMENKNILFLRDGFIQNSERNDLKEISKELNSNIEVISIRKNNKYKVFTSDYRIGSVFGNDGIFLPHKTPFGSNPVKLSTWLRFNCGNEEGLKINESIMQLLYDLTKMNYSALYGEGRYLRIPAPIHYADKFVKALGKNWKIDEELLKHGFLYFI
- assay_protocol: equilibrium fluorescence titration
- condition_parameters: 5'-phosphate on guide; Stopped-flow at 25 °C, 20 nM FAM-labelled guide, same buffers as titrations (buffer composition not in the material; hybridization buffer 15 mM Hepes pH 7.4 …)
pKd: −log10 of the molar value.
observed_property: pKd

[[record]]
sequence_data = "TAGAGGTACGTGCTGAGGCTT / GCCTCAGCACGTACCTCTATT [D-as2bFAM/D-s2b (ds siDNA, D-si2bFAM)]"
value = 6.99

